Target Entity: T1, human VLA4-Fc (alpha4-Fc/beta1-Fc heterodimer) (human)
T1 construct: Soluble heterodimer from CHO cells, Protein A purified; also called VLA-Fc
T1 sequence (chain, as listed by the source limits assumed, form in doubt, chain 1 of 2): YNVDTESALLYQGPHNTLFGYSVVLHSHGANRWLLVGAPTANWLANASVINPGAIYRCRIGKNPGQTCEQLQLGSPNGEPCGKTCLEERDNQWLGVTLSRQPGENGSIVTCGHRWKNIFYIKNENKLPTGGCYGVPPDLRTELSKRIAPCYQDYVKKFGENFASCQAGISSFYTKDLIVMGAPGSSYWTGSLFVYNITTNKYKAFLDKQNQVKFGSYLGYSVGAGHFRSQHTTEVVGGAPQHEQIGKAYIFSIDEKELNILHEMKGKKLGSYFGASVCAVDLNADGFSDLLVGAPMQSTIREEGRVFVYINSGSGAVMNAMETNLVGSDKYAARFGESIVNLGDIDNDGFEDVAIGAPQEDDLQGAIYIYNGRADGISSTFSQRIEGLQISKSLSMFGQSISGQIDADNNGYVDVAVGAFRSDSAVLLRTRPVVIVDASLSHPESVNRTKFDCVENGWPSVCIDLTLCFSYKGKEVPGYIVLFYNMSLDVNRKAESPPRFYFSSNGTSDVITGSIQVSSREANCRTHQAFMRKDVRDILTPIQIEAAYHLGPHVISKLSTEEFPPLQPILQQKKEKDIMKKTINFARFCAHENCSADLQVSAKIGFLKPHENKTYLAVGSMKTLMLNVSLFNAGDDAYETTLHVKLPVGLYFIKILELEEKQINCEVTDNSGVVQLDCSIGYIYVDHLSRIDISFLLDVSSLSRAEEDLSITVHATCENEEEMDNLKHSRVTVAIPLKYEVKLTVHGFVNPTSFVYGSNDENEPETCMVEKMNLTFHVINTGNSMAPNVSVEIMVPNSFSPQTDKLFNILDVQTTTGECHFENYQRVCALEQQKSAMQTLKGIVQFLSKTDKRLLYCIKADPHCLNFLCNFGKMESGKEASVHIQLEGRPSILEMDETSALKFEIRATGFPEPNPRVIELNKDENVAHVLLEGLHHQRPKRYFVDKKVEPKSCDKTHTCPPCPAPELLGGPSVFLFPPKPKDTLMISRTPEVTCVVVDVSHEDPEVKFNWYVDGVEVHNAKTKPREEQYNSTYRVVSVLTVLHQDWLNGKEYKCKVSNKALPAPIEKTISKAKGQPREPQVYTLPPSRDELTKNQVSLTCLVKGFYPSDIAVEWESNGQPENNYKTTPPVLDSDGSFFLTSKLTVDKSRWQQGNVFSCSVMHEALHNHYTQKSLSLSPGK
T1 sequence (chain, as listed by the source limits assumed, form in doubt, chain 2 of 2): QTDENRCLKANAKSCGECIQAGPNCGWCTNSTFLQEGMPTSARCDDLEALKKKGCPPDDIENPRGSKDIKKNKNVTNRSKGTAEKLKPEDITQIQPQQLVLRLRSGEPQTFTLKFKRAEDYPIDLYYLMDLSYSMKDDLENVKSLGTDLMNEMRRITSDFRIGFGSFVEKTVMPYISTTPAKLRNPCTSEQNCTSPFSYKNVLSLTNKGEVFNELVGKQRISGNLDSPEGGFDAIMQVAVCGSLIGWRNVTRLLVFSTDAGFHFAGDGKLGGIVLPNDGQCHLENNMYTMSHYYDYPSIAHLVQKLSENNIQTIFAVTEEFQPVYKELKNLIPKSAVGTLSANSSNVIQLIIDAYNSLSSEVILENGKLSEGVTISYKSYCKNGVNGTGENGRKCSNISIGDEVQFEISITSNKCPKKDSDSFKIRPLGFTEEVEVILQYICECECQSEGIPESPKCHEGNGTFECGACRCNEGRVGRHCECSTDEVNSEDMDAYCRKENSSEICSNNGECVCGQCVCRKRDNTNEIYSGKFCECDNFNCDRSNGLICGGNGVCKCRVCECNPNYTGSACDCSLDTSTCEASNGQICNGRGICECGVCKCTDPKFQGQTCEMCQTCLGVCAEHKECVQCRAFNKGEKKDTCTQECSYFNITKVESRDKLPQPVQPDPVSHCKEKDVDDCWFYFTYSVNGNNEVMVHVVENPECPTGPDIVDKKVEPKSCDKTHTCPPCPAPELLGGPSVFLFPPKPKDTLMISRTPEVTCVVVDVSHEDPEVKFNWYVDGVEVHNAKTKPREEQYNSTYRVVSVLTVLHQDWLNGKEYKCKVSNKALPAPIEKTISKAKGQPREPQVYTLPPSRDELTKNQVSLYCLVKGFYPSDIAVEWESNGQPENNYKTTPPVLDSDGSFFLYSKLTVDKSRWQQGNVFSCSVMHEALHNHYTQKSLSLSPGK
Method Summary: SPR (BIACORE), VLA4-Fc captured by anti-human IgG, 1 mM MnCl2, 1:1 Langmuir
Description: The kinetic 2D-VCAM-1 assay measures binding kinetics of a dimeric ligand (e.g., VLA-Fc fusion protein or LPAM-1-Fc fusion protein) coated to sensor chips and monomeric analyte (e.g., 2D-VCAM-1 variant polypeptides) in the mobile phase. […] Typically, 8 dilutions of 2D-VCAM-1 variant polypeptides ranging from 150 nM to 0.069 nM were analyzed against a blank reference (HBS-P-Mn buffer alone).
Value Kind: binding affinity for VLA4-Fc relative to human 2D-VCAM-1 (fold)

Binder	Observed Measurement
human 2D-VCAM-1 (ligand, also called wild type 2D-VCAM-1; wt-2D-VCAM-1; not shown: His tag) FKIETTPESRYLAQIGDSVSLTCSTTGCESPFFSWRTQIDSPLNGKVTNEGTTSTLTMNPVSFGNEHSYLCTATCESRKLEKGIQVEIYSFPKDPEIHLSGPLEAGKPITVKCSVADVYPFDRLEIDLLKGDHLMKSQEFLEDADRKSLETKSLEVTFTPVIEDIGKVLVCRAKLHIDEMDSVPTVRQAVKELQVYISP	1
2D-VCAM-1 variant Clone 46 (ligand, also called Clone 046; not shown: His tag) FKIETTPESRYLAQIGDSVSLTCSTTGCESPFFSWRPQLDAPLNGKVTNEGTTSTLTMNPVSFGNEHSYLCTATCESRKLEKGIQVEIYSFPKDPEIHLSGPLEAGKPITVKCSVADVYPFDRLEIDLLKGDHLMKSQEFLEDADRKSLETKSLEVTFTPVIEDIGKVLVCRAKLHIDEMDSVPTVRQAVKELQVYISP	124

Origin of measurements: patent US20120135912A1
